Hey, just so you know, these numbers are from paper PMC4835091.

Target: T1, GAL4 BD-ZapD fusion (E. coli, UniProt P36680 1-247)
T1 construct: ZapD, Z-ring stabilizer of E. coli; also called pDEST-GBKT7-zapD; source: yeast two-hybrid fusion (pDEST-GBKT7-zapD in S. cerevisiae PJ69-4A, diploid after mating)
T1 sequence (looked up): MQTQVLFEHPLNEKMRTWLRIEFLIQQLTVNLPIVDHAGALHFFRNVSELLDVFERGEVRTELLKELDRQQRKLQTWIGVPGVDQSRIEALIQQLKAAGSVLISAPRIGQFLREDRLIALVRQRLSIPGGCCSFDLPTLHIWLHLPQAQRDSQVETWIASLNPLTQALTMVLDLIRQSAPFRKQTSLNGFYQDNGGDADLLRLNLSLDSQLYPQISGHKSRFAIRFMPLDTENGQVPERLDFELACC
Assay: two-hybrid; GAL4 BD-ZapD with GAL4 AD-FtsZ fusions in diploid yeast grown in YNB (-Leu-Trp) at 30°C; beta-galactosidase activity in Miller units, mean of 10 independent trials
Conditions: partners not purified
MEASURED_QUANTITY: β-galactosidase activity (Miller units)
Note: unit Miller units is implicit; provide only the numeric part.

input: Consider the binder GAL4 AD-FtsZ(DQAK) fusion (natural protein, E. coli, UniProt P0A9A6 1-383, looked up, FtsZ of E. coli with the native CTV KQAD replaced by DQAK (net-neutral); source: yeast two-hybrid fusion (pDEST-GADT7-ftsZ(DQAK) in S. cerevisiae SL3004, diploid after mating)) MFEPMELTNDAVIKVIGVGGGGGNAVEHMVRERIEGVEFFAVNTDAQALRKTAVGQTIQIGSGITKGLGAGANPEVGRNAADEDRDALRAALEGADMVFIAAGMGGGTGTGAAPVVAEVAKDLGILTVAVVTKPFNFEGKKRMAFAEQGITELSKHVDSLITIPNDKLLKVLGRGISLLDAFGAANDVLKGAVQGIAELITRPGLMNVDFADVRTVMSEMGYAMMGSGVASGEDRAEEAAEMAISSPLLEDIDLSGARGVLVNITAGFDLRLDEFETVGNTIRAFASDNATVVIGTSLDPDMNDELRVTVVATGIGMDKRPEITLVTNKQVQQPVMDRYQQHGMAPLTQEQKPVAKVVNDNAPQTAKEPDYLDIPAFLRDQAK and give its recorded β-galactosidase activity.
output: 170

input: Consider the binder GAL4 AD-FtsZ(QQQQ) fusion (natural protein, E. coli, UniProt P0A9A6 1-383, looked up, FtsZ of E. coli with the native CTV KQAD replaced by QQQQ (net-neutral); source: yeast two-hybrid fusion (pDEST-GADT7-ftsZ(QQQQ) in S. cerevisiae SL3004, diploid after mating)) MFEPMELTNDAVIKVIGVGGGGGNAVEHMVRERIEGVEFFAVNTDAQALRKTAVGQTIQIGSGITKGLGAGANPEVGRNAADEDRDALRAALEGADMVFIAAGMGGGTGTGAAPVVAEVAKDLGILTVAVVTKPFNFEGKKRMAFAEQGITELSKHVDSLITIPNDKLLKVLGRGISLLDAFGAANDVLKGAVQGIAELITRPGLMNVDFADVRTVMSEMGYAMMGSGVASGEDRAEEAAEMAISSPLLEDIDLSGARGVLVNITAGFDLRLDEFETVGNTIRAFASDNATVVIGTSLDPDMNDELRVTVVATGIGMDKRPEITLVTNKQVQQPVMDRYQQHGMAPLTQEQKPVAKVVNDNAPQTAKEPDYLDIPAFLRQQQQ and give its recorded β-galactosidase activity.
output: 115
